# MEASUREMENT_NOTES: MITF transcriptional activity suppression – cell-based, SK-MEL-5, single point, luciferase, primary screen (AID 488899)
# MEASUREMENT_PARAMETERS: SK-MEL-5 TRPM1 promoter luciferase, 24 h; at 12.5 µM; stronger effect = higher value
In all, about 330,000 compounds went through this assay and about 2,800 (0.85%) were called active. For the sample, actives were picked, then their nearest neighbours and some compounds at random.
Entries and their inhibition

# count of solved cases: 2
MOLECULE: CCOc1ccc(C(=O)CCC(=O)Nc2ccncc2)cc1
ASSAY_RESULT: 8.37% (inactive)
--
MOLECULE: CC1CCCN(CC(O)COCc2ccccc2)C1 (stereo unspecified)
ASSAY_RESULT: -13.7% (inactive)

Incoming: Give the measured inhibition of COCCSc1nnc(NC(=O)CCS(=O)(=O)Cc2ccccc2)s1 .
Outgoing: -6.5% (inactive)

Incoming: Give the measured inhibition of Oc1c(CN2CCCC2)cc(COCc2ccccc2)c2cccnc12 .
Outgoing: 73.5% (active)

Incoming: Give the measured inhibition of CCOc1ccc(NC(=O)CCC(=O)N/N=C/c2ccc([N+](=O)[O-])s2)cc1 .
Outgoing: 62.8% (active)

Incoming: Give the measured inhibition of CSc1ncc(Sc2ccccc2)c(C(=O)O)n1 .
Outgoing: 5.79% (inactive)

Incoming: Give the measured inhibition of CSc1ncc(Cl)c(C(=O)Nc2cc(C)ccc2C)n1 .
Outgoing: 18.6% (inactive)

Incoming: Give the measured inhibition of O=C(CN1CCc2ccccc2C1)Nc1cccc(S(=O)(=O)N2CCOCC2)c1 .
Outgoing: 4.73% (inactive)

Incoming: Give the measured inhibition of CCOc1ccc(NC(=O)CCC(=O)NNC(=O)NC2CCCCC2)cc1 .
Outgoing: -2.59% (inactive)

Incoming: Give the measured inhibition of Oc1c(CN2CCN(c3ccc(F)cc3)CC2)cc(Cl)c2cccnc12 .
Outgoing: 70.7% (active)

Incoming: Give the measured inhibition of Cc1ccc(CS(=O)(=O)c2ncc(Cl)c(C(=O)Nc3nnc(C)s3)n2)cc1 .
Outgoing: 85.4% (active)

---

Entries and their inhibition
# MEASUREMENT_NOTES: MITF transcriptional activity suppression – cell-based, SK-MEL-5, single point, luciferase, primary screen (AID 488899)
# MEASUREMENT_PARAMETERS: SK-MEL-5 TRPM1 promoter luciferase, 24 h; at 12.5 µM; stronger effect = higher value
Hit rate of the full screen: of about 330,000 compounds, about 2,800 (0.85%) were called active. What follows is part of a selection rich in actives, with near analogues and random picks from the rest.
Enter your answer as a number in %; do not include the unit.

MOLECULE: COc1ccc(C2NC(=O)C(=O)/C2=C(\O)c2ccc(Cl)cc2)cc1OC (stereo not given)
MEASUREMENT_UNITS: %
ASSAY_RESULT: -6.72
--
MOLECULE: C=CCNc1cnn(-c2ccc(C)cc2)c(=O)c1Cl
MEASUREMENT_UNITS: %
ASSAY_RESULT: -110
--
MOLECULE: C=CCNc1nnc(SCC(=O)N2CCCCC2)c2ccccc12
MEASUREMENT_UNITS: %
ASSAY_RESULT: 11.5
--
MOLECULE: Cc1coc2c(O)cc3c(c12)OC1(N2CCCCC2)C(=O)NCCCC31 (stereo not given)
MEASUREMENT_UNITS: %
ASSAY_RESULT: 77.4
--
MOLECULE: COC(C[C@H](O)CC(=O)COCc1ccccc1)OC
MEASUREMENT_UNITS: %
ASSAY_RESULT: -3.12
--
MOLECULE: C=C(C)C(=O)Nc1cccc(C2=NOC3(C2)C[C@H](C(N)=O)N(C(=O)C(c2ccccc2)c2ccccc2)C3)c1 (stereo not given in full)
MEASUREMENT_UNITS: %
ASSAY_RESULT: 0.48
--
MOLECULE: CC(C)(C)NC(=O)COc1ccc(CNc2ccc3[nH]c(=O)[nH]c3c2)cc1
MEASUREMENT_UNITS: %
ASSAY_RESULT: 0.891
--
MOLECULE: Cc1cccc(-n2ncc(C#N)c2-n2cccc2)c1
MEASUREMENT_UNITS: %
ASSAY_RESULT: 3.18
--
MOLECULE: Cc1ccc(-n2nc(N)c3c(=O)oc(N(C)C)nc32)cc1
MEASUREMENT_UNITS: %
ASSAY_RESULT: -8.9

Okay, next one:
Incoming: Give the measured inhibition of O=C(CN1CCN(S(=O)(=O)c2ccc(Br)cc2)CC1)Nc1ccccc1C(=O)c1ccccc1 .
Outgoing: -0.0235

Values compiled from PubChem BioAssay AID488899.
